# Assay target: T1, recombinant hIL1RAP Domain1+2+3 (aa21-367) (human, UniProt Q9NPH3 21-367)
# T1 construct: Numbering on Uniprot Q9NPH3
# T1 sequence (looked up): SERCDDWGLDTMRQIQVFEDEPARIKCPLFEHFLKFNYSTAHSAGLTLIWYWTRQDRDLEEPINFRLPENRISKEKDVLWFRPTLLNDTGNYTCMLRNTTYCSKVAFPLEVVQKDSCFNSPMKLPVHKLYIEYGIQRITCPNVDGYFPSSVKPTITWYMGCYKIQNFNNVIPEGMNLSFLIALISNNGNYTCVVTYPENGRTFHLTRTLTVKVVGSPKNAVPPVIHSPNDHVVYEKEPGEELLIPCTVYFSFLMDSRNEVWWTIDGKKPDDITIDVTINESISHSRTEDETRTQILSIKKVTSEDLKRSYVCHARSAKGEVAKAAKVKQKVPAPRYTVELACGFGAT
# Assay method text: bio-layer interferometry, human IL1RAP
# Kd annotations
Recorded metric: Kd (nM)

h48D2 VH3:VL1 (antibody, human IgG1, kappa, L234A L235A, V domains shown, Humanized; also called VL1:VH3) VH: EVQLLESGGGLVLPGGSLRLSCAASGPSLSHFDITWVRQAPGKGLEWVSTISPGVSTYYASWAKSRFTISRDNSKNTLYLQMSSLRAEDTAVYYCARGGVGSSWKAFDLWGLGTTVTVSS VL: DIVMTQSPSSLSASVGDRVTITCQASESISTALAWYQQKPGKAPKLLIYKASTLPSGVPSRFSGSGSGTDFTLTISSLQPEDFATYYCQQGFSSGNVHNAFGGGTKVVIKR	28
h48D2 VH2:VL5 (antibody, human IgG1, kappa, L234A L235A, V domains shown, Humanized; also called VL5:VH2) VH: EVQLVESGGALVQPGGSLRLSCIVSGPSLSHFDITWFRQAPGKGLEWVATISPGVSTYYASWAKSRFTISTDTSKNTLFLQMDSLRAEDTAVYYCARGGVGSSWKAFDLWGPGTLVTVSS VL: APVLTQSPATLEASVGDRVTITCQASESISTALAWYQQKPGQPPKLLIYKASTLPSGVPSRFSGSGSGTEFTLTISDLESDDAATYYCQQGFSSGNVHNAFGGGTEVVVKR	12
h48D2 VH3:VL4 (antibody, human IgG1, kappa, L234A L235A, V domains shown, Humanized; also called VL4:VH3) VH: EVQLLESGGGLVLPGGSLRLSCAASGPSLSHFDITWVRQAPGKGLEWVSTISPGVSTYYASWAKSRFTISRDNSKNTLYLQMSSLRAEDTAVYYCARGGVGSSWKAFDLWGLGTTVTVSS VL: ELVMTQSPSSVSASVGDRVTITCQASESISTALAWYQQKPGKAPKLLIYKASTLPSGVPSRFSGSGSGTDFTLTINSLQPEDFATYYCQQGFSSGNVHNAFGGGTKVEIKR	29.6
h48D2 VH4:VL1 (antibody, human IgG1, kappa, L234A L235A, V domains shown, Humanized; also called VL1:VH4) VH: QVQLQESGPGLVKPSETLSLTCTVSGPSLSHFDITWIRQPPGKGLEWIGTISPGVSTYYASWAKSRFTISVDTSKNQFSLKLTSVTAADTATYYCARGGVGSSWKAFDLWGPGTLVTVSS VL: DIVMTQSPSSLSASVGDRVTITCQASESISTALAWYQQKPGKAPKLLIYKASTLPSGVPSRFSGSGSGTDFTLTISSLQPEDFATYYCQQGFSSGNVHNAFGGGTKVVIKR	19.7
h48D2 VH4:VL2 (antibody, human IgG1, kappa, L234A L235A, V domains shown, Humanized; also called VL2:VH4) VH: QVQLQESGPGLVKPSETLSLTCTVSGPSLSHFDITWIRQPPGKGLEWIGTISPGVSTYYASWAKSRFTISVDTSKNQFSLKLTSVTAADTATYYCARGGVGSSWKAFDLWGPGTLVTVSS VL: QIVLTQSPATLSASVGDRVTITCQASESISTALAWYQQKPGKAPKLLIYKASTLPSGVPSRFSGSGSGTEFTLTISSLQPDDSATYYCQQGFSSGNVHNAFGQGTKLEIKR	13.2

All figures here come from patent US20220242950A1.
